Task for the reader: assign each of the following binders its reported Human GIPR cAMP, HEK293T EC50.
Molecular target: T1, full-length human GIPR with an N-terminal FLAG tag (human, UniProt P48546 22-466)
T1 sequence (looked up): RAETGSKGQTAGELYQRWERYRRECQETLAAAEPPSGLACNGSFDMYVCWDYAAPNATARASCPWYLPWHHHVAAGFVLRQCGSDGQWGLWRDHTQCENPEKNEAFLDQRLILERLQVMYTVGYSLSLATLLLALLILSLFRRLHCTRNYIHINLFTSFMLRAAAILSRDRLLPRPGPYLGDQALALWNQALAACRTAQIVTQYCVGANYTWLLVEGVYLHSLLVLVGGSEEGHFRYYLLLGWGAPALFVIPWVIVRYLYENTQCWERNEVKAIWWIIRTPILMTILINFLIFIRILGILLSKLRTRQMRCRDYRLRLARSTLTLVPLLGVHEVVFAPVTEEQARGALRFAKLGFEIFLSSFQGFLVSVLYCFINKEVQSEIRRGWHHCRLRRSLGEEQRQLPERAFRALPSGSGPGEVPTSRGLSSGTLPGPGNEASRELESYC
Assay: cell-based or functional assay
Starred links: 1 amine or outer side, 2 acyl side, 3 side chain; linkers in the order of their positions; H or OH if unused. Non-standard residues stand in square brackets, D forms with d. Groups on a side chain read outwards from the residue. No end group written: not given here. *: point of attachment. G2E3 = linker of 2 Gly and 3 Glu (read GGEEE); C15 diacid = O=C(O)CCCCCCCCCCCCCC(=O)*; γGlu = O=C(O)[C@H](CCC(=O)[*:2])N[*:1]; NMeY = CN[C@@H](Cc1ccc(O)cc1)C(=O)O; Aib = CC(C)(N)C(=O)O
Write down the numeric answer in pM and omit the unit.

Ask: Consider the binder [NMeY][Aib]EGTFISDYSIAK([G4-γGlu-C15 diacid])DR[Aib]AQ[Aib]NFVNWLLAQSPSSGAPPPS-NH2 [Compound 78] . State its measured Human GIPR cAMP, HEK293T EC50.
Reply: 0.3

Ask: Name the recorded Human GIPR cAMP, HEK293T EC50 of the binder listed here: Me-Y[Aib]EGTFISDYSIAKDR[Aib]AQ[Aib]DFVNWLLAQSPSSGAPPPG-OH (not fully specified (residues 1, 14)) [Compound 152]
Reply: 0.3

Ask: For the binder YXEGTFISDYSIALDKXHQXDFVNWLLAXK (not fully specified; Me-Tyr1; Aib 2,17,20; Km29 = Lys(2OEGgE-C15DA); position 21 printed 'O' in Table 3; C-term OH) [Compound 36] , report Human GIPR cAMP, HEK293T EC50.
Reply: 1

Ask: Given Me-Y[Aib]EGTFISDYSI[Aib]K([G2E3-C15 diacid])DR[Aib]AQ[Aib]NFVNWLLAQRPSSGAPPPS-NH2 [Compound 138] , respond with its Human GIPR cAMP, HEK293T EC50.
Reply: 0.4

Ask: For the binder [NMeY][Aib]EGTFISDYSI[Aib]K([GGEEE-C15 diacid])DR[Aib]AQ[Aib]NFVNWLLAQRPSSGAPPPS-NH2 [Compound 95] , give its measured Human GIPR cAMP, HEK293T EC50 value.
Reply: 0.2
